Hi there, I'd appreciate the recorded concentration at 6 h for every entry that follows.
MEASUREMENT PROTOCOL: Drug uptake in SCID mouse xenografted with human MOLM16 cells assessed as drug level in plasma at 50 mg/kg, iv measured after 6 hrs by LC-MS/MS
Format: ADME, organism-based
Give your result as the value with the unit written after it.

>>> value("NC(=O)CC[C@H](NC(=O)[C@@H]1CC[C@@H]2CCN(C(=O)CCCCCC#Cc3cccc4c3CN(C3CCC(=O)NC3=O)C4=O)C[C@H](NC(=O)c3cc4cc(C(=O)P(=O)(O)O)ccc4[nH]3)C(=O)N21)C(=O)NC(c1ccccc1)c1ccccc1 (some centres not stated)")
"49200 ng/mL"

Data request, read-out concentration at 6 h, for NC(=O)CC[C@H](NC(=O)[C@@H]1CC[C@@H]2CCN(C(=O)CCCCCC#Cc3cccc4c3CN(C3CCC(=O)NC3=O)C4=O)C[C@H](NC(=O)c3cc4cc(C(F)(F)P(=O)(O)O)ccc4[nH]3)C(=O)N21)C(=O)NC(c1ccccc1)c1ccccc1 (some centres not stated) 1300 ng/mL

* * *

TARGET OR TEST SYSTEM: Signal transducer and activator of transcription 3 (Homo sapiens, UniProt P40763)
Sequence (P40763 whole entry): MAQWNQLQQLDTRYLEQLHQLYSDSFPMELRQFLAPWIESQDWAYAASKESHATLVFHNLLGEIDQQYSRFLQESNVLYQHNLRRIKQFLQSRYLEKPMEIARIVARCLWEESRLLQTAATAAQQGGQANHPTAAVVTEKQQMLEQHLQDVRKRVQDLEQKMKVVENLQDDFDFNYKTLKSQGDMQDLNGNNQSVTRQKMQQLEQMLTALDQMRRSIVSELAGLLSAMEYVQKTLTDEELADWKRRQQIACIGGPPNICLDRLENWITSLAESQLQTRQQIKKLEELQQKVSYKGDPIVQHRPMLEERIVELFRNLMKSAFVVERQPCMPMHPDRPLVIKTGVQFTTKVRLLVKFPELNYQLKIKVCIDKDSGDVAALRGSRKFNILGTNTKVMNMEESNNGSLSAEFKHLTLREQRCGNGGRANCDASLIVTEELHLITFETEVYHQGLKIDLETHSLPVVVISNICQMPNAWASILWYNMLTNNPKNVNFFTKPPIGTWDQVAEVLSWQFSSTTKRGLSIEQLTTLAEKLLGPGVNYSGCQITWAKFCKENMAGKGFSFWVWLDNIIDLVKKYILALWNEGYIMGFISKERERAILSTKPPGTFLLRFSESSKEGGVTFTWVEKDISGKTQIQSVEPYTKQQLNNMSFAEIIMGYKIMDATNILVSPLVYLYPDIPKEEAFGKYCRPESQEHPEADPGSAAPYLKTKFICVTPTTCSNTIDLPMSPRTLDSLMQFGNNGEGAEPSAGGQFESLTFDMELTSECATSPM
MEASUREMENT PROTOCOL: Induction of STAT3 degradation in human SU-DHL-1 cells at 0.25 to 100 uM incubated for 14 hrs by Western blot analysis
Format: cell-based
MEASUREMENT PARAMETERS: dose 0.25-100 µM
Calls of active or inactive are those of the source. The calls are words filed in the database; no cut-off is given here.
Hello, when you answer, please use one of the following outcomes: active, inactive

Sample answers from the record:
>>> class_label("NC(=O)CC[C@H](NC(=O)[C@@H]1CC[C@@H]2CCN(C(=O)CCCCCC#Cc3cccc4c3CN(C3CCC(=O)NC3=O)C4=O)C[C@H](NC(=O)c3cc4cc(C(F)(F)P(=O)(O)O)ccc4[nH]3)C(=O)N21)C(=O)NC(c1ccccc1)c1ccccc1 (some centres undefined)")
"inactive"
>>> class_label("CC(=O)N1CC[C@H]2CC[C@@H](C(=O)N[C@@H](CCC(N)=O)C(=O)NC(c3ccccc3)c3ccccc3)N2C(=O)[C@@H](NC(=O)c2cc3cc(C(F)(F)P(=O)(O)O)ccc3[nH]2)C1")
"inactive"
>>> class_label("NC(=O)CC[C@H](NC(=O)[C@@H]1CC[C@@H]2CCN(C(=O)CCCCCC#Cc3cccc4c3CN(C3CCC(=O)NC3=O)C4=O)C[C@H](NC(=O)c3cc4cc(C(=O)P(=O)(O)O)ccc4[nH]3)C(=O)N21)C(=O)NC(c1ccccc1)c1ccccc1 (some centres undefined)")
"active"

Lab note: next molecule to report on.
GET /call?item= `CC(=O)N1CC[C@H]2CC[C@@H](C(=O)N[C@@H](CCC(N)=O)C(=O)NC(c3ccccc3)c3ccccc3)N2C(=O)[C@@H](NC(=O)c2cc3cc(C(=O)P(=O)(O)O)ccc3[nH]2)C1` returns the recorded outcome of this test. inactive

* * *

Hi there, I'd appreciate the recorded concentration at 6 h for every entry that follows.
MEASUREMENT PROTOCOL: Drug uptake in SCID mouse xenografted with human MOLM16 cells assessed as drug level in tumor tissue at 50 mg/kg, iv measured after 6 hrs by LC-MS/MS
Type: ADME, organism-based
MEASUREMENT PARAMETERS: read-out: Drug uptake
Give your result as the value with the unit written after it.

>>> value("NC(=O)CC[C@H](NC(=O)[C@@H]1CC[C@@H]2CCN(C(=O)CCCCCC#Cc3cccc4c3CN(C3CCC(=O)NC3=O)C4=O)C[C@H](NC(=O)c3cc4cc(C(=O)P(=O)(O)O)ccc4[nH]3)C(=O)N21)C(=O)NC(c1ccccc1)c1ccccc1 (some centres not stated)")
"4780 ng/g"

Could you now consider this next compound?
Data request, read-out concentration at 6 h, for NC(=O)CC[C@H](NC(=O)[C@@H]1CC[C@@H]2CCN(C(=O)CCCCCC#Cc3cccc4c3CN(C3CCC(=O)NC3=O)C4=O)C[C@H](NC(=O)c3cc4cc(C(F)(F)P(=O)(O)O)ccc4[nH]3)C(=O)N21)C(=O)NC(c1ccccc1)c1ccccc1 (some centres not stated) 580 ng/g

Sourced from ChEMBL document CHEMBL4706770
